Each entry below carries its recorded AC50.
Molecular target: Prostaglandin G/H synthase 1 (Rattus norvegicus, UniProt Q63921); also: assay procedure not described here
Sequence (Q63921 whole entry): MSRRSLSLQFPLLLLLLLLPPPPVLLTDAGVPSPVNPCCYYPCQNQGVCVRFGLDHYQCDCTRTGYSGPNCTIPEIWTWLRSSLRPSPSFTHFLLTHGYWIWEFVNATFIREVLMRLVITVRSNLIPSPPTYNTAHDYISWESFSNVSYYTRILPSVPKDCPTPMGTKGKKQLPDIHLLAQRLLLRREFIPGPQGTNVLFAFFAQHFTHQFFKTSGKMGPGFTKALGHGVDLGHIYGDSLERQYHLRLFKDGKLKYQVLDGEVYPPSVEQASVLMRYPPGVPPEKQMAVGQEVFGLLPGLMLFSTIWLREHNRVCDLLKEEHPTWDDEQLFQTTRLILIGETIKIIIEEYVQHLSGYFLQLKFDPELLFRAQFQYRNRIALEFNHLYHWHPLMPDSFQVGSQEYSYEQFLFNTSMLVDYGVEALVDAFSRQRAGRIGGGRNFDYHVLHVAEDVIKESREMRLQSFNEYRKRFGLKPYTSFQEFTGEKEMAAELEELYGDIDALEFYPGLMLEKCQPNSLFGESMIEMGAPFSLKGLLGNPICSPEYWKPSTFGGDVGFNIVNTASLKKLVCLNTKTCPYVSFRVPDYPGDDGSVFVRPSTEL
Assay type: functional

In [3]: df
Out[3]:
                                   compound  result_value
0  CN(C)CCOC(c1ccc(Cl)cc1)c1ccccn1 (stereo unspecified)       > 30 µM
1  CN1C2CCCC1CC(NC(=O)c1nn(C)c3ccccc13)C2 (stereo unspecified)       > 30 µM

**Query** Read off the recorded AC50 for "CC(C)C[C@H](NC(=O)[C@H](Cc1ccccc1)NC(=O)c1cnccn1)B(O)O"
**Result** > 30 µM

**Query** Read off the recorded AC50 for CC1=C(/C=C/C(C)=C/C=C/C(C)=C/C(=O)Oc2c(C)c(C)c3c(c2C)CCC(C)(CCCC(C)CCCC(C)CCCC(C)C)O3)C(C)(C)CCC1 (stereo unspecified)
**Result** > 30 µM

**Query** Read off the recorded AC50 for "CN1CCC(=C2c3ccccc3CC(=O)c3sccc32)CC1"
**Result** > 10 µM

====

Please consider the recorded AC50 for Sodium-dependent noradrenaline transporter (Homo sapiens) in what follows.

                                   compound  result_value
0  CO/N=C(\C(=O)N[C@@H]1C(=O)N2C(C(=O)[O-])=C(C[n+]3ccc(N)n3CCO)CS[C@H]12)c1csc(N)n1       > 30 µM
1  CCCCCCOC(=O)NC(=N)c1ccc(NCc2nc3cc(C(=O)N(CCC(=O)OCC)c4ccccn4)ccc3n2C)cc1 [DABIGATRAN ETEXILATE]        6.3 µM

**Query** Provide Sodium-dependent noradrenaline transporter (Homo sapiens) AC50 reading for "O=C(O)CCCC[C@@H]1SC[C@@H]2NC(=O)N[C@@H]21" .
**Result** > 10 µM

**Query** Provide Sodium-dependent noradrenaline transporter (Homo sapiens) AC50 reading for "CCOc1cc2ncc(C#N)c(Nc3ccc(OCc4ccccn4)c(Cl)c3)c2cc1NC(=O)/C=C/CN(C)C" .
**Result** > 10 µM

**Query** Provide Sodium-dependent noradrenaline transporter (Homo sapiens) AC50 reading for "C[C@]12CCC(=O)C=C1CC[C@H]1[C@@H]3CC[C@](O)(C(=O)CO)[C@@]3(C)C[C@H](O)[C@@]12F" .
**Result** > 30 µM

**Query** Provide Sodium-dependent noradrenaline transporter (Homo sapiens) AC50 reading for "O=C1[C@@H]2[C@H]3CC[C@H](C3)[C@@H]2C(=O)N1C[C@@H]1CCCC[C@H]1CN1CCN(c2nsc3ccccc23)CC1" .
**Result** > 30 µM

**Query** Provide Sodium-dependent noradrenaline transporter (Homo sapiens) AC50 reading for "CC(=O)OCC1=C(C(=O)O)N2C(=O)[C@@H](NC(=O)CSc3ccncc3)[C@H]2SC1" .
**Result** > 10 µM

**Query** Provide Sodium-dependent noradrenaline transporter (Homo sapiens) AC50 reading for C[C@@H](O)[C@H]1C(=O)N2C(C(=O)O)=C(SCCN=CN)C[C@H]12 [IMIPENEM ANHYDROUS] .
**Result** > 300 µM

**Query** Provide Sodium-dependent noradrenaline transporter (Homo sapiens) AC50 reading for O=C(O[C@H]1C[N+]2(CCCOc3ccccc3)CCC1CC2)C(O)(c1cccs1)c1cccs1 [ACLIDINIUM BROMIDE] .
**Result** > 10 µM

**Query** Provide Sodium-dependent noradrenaline transporter (Homo sapiens) AC50 reading for "Nc1nnc(-c2cccc(Cl)c2Cl)c(N)n1" .
**Result** > 10 µM

**Query** Provide Sodium-dependent noradrenaline transporter (Homo sapiens) AC50 reading for "CS(=O)(=O)NC(=O)CCC/C=C\C[C@H]1C(=O)C[C@@H](O)[C@@H]1/C=C/[C@@H](O)COc1ccccc1" .
**Result** > 30 µM

**Query** Provide Sodium-dependent noradrenaline transporter (Homo sapiens) AC50 reading for "NCCCCCC(=O)O" .
**Result** 20.4 µM
